# Study System: HLA-A*02:03
# Method Summary: IEDB peptide-MHC binding, purified MHC/competitive/fluorescence; filed as Kd, often an IC50 or EC50 that approximates it; bounds were set here for any values at or beyond the usual limits of such assays
# Condition Set: source organism: Influenza A virus (A/81/HO)
pKd: −log10 of the molar value.
Assay Readout: pKd

Ask | Fill in: pKd of `ELRSRYWAI` is ___
Reply | ≤ 4.70

====

# Study System: HLA-B*27:05
# Method Summary: IEDB peptide-MHC binding, purified MHC/direct/fluorescence; filed as Kd, often an IC50 or EC50 that approximates it; bounds were set here for any values at or beyond the usual limits of such assays
# Condition Set: source organism: Rickettsia prowazekii
pKd: −log10 of the molar value.
Assay Readout: pKd

Ask | Sample `YGGKKAVTY` — what was its pKd?
Reply | ≤ 4.70

====

# Study System: HLA-A*31:01
# Method Summary: IEDB peptide-MHC binding, purified MHC/competitive/radioactivity; filed as Kd, often an IC50 or EC50 that approximates it; bounds were set here for any values at or beyond the usual limits of such assays
# Condition Set: source organism: SARS coronavirus Tor2
Assay Readout: Kd (nM)
Respond numerically; units are nM and should not be typed.

Record excerpt, results attached:
QSADASTFLK : 1020
TQVLKTMSLY : 9420
FVASFRLFAR : 6.64
ALLSTDGNK : 10200

Ask | State the recorded Kd for this entry: `DFYDFAVSK`
Reply | 12400

Ask | Note, next up: `ATKIIALNK`
Reply | 840

Ask | Now consider `MLAHAEETRK` and answer again.
Reply | 9410

Ask | Cool, now `VVPDYGTYK`
Reply | 2720

Ask | Also `GVIADYNYK` , if possible.
Reply | 126

Ask | Repeat for the following sequence: `VTYVPSQER`
Reply | 23.6

Ask | Another sequence: `STNLCTHSFR`
Reply | 0.941

Ask | Repeat with `KFTTSLSLHK`
Reply | 239

Ask | Another sequence: `SFYYIWKSY`
Reply | 68.1

Ask | Then this sequence: `VLCNSQTSLR`
Reply | 68.4

Ask | What about `MSLSEQLRK` ?
Reply | 181

Ask | Same thing, different sequence: `SQMLLIVLK`
Reply | 350

Ask | Same read-out for `TVYDDAARR` ?
Reply | 1160

Ask | How about `AVHDFFKFR` ?
Reply | 4.9

====

# Study System: HLA-B*27:05
# Method Summary: IEDB peptide-MHC binding, purified MHC/direct/fluorescence; filed as Kd, often an IC50 or EC50 that approximates it; bounds were set here for any values at or beyond the usual limits of such assays
# Condition Set: source organism: Marburg virus - Musoke, Kenya, 1980
Assay Readout: Kd (nM)
Answer format: numeric, nM implied, no suffix.

Ask | # get_value(readout='Kd', item= `KRLLLKLDF` )
Reply | 382

====

# Study System: HLA-A*02:19
# Method Summary: IEDB peptide-MHC binding, purified MHC/direct/fluorescence; filed as Kd, often an IC50 or EC50 that approximates it; bounds were set here for any values at or beyond the usual limits of such assays
# Condition Set: source organism: Influenza A virus(A/swine/Henan/5/2004(H9N2))
Assay Readout: Kd

Ask | Given the entry `YMFESKSMK` , report its measured Kd.
Reply | ≥ 20 µM

====

# Study System: HLA-A*11:01
# Method Summary: IEDB peptide-MHC binding, purified MHC/competitive/radioactivity; filed as Kd, often an IC50 or EC50 that approximates it; bounds were set here for any values at or beyond the usual limits of such assays
# Condition Set: source organism: SARS coronavirus Tor2
Assay Readout: pKd
Answer as the number alone; pKd is minus log10 of concentration in mol/L.

// solved cases for pKd follow
CVDIPGIPK : 7.70
VVPDYGTYK : 7.07
SFYYIWKSY : 5.17

Ask | Please provide the recorded pKd for `SQMLLIVLK` , tested on HLA-A*11:01.
Reply | 9.30

Ask | Then what about the sequence `PQVGGLTSIK` ?
Reply | 5.20

====

# Study System: HLA-A*01:01
# Method Summary: IEDB peptide-MHC binding, purified MHC/direct/fluorescence; filed as Kd, often an IC50 or EC50 that approximates it; bounds were set here for any values at or beyond the usual limits of such assays
# Condition Set: source organism: Rickettsia prowazekii
Assay Readout: Kd

Ask | Using the record for `YGGKKAVTY` , report its Kd.
Reply | ≥ 20 µM

====

Measured pKd, listed per entry.
# Study System: HLA-A*26:01
# Method Summary: IEDB peptide-MHC binding, purified MHC/competitive/fluorescence; filed as Kd, often an IC50 or EC50 that approximates it; bounds were set here for any values at or beyond the usual limits of such assays
# Condition Set: source organism: Cryptosporidium parvum Iowa II
pKd: −log10 of the molar value.

Ask | Requested field: pKd. Item: `KIFKVTGEF`
Reply | ≤ 4.70

Ask | Item: `KLGDITLFL`
Reply | ≤ 4.70

====

# Study System: HLA-B*07:02
# Method Summary: IEDB peptide-MHC binding, purified MHC/direct/fluorescence; filed as Kd, often an IC50 or EC50 that approximates it; bounds were set here for any values at or beyond the usual limits of such assays
# Condition Set: source organism: Brucella suis
Assay Readout: Kd

Ask | Entry `DVIGNDRQE` has what Kd?
Reply | ≥ 20 µM

====

# Study System: HLA-A*01:01
# Method Summary: IEDB peptide-MHC binding, purified MHC/competitive/fluorescence; filed as Kd, often an IC50 or EC50 that approximates it; bounds were set here for any values at or beyond the usual limits of such assays
# Condition Set: source organism: Yersinia pestis Nepal516
Assay Readout: Kd

Ask | What Kd value was documented for this sequence, `QWSPGPGRL` ?
Reply | ≥ 20 µM

====

# Study System: HLA-A*29:02
# Method Summary: IEDB peptide-MHC binding, purified MHC/competitive/fluorescence; bounds were set here for any values at or beyond the usual limits of such assays
# Condition Set: source organism: Monodelphis domestica
Assay Readout: pIC50
// returns pIC50 (minus log10 of molar concentration), number only

Ask | Quick one: pIC50 of `FLLPILSQIYT` ?
Reply | 6.69

====

# Study System: HLA-A*33:01
# Method Summary: IEDB peptide-MHC binding, purified MHC/competitive/radioactivity; filed as Kd, often an IC50 or EC50 that approximates it; bounds were set here for any values at or beyond the usual limits of such assays
# Condition Set: source organism: Mammarenavirus brazilense
Assay Readout: pKd
Convention used: pKd is expressed as -log10 of the molar concentration.

Ask | Requested read-out: pKd. Entry: `KCSDHYICLK`
Reply | 5.09

====

# Study System: HLA-A*26:01
# Method Summary: IEDB peptide-MHC binding, purified MHC/direct/fluorescence; filed as Kd, often an IC50 or EC50 that approximates it; bounds were set here for any values at or beyond the usual limits of such assays
# Condition Set: source organism: Pseudomonas putida
pKd: −log10 of the molar value.
Assay Readout: pKd

Ask | Given the entry `NWDWGVFFK` , what pKd was observed with HLA-A*26:01?
Reply | ≤ 4.70

====

# Study System: HLA-A*80:01
# Method Summary: IEDB peptide-MHC binding, purified MHC/competitive/fluorescence; filed as Kd, often an IC50 or EC50 that approximates it; bounds were set here for any values at or beyond the usual limits of such assays
# Condition Set: source organism: Cryptosporidium parvum Iowa II
Assay Readout: pKd
Remember, pKd is on a log scale: it is -log10 of the molar concentration.

Ask | Value wanted: pKd (HLA-A*80:01) of entry `KLGDITLFL`
Reply | 7.81

====

# Study System: HLA-A*69:01
# Method Summary: IEDB peptide-MHC binding, purified MHC/direct/fluorescence; filed as Kd, often an IC50 or EC50 that approximates it; bounds were set here for any values at or beyond the usual limits of such assays
# Condition Set: source organism: Vibrio vulnificus
Assay Readout: pKd
Scale for pKd: -log10 of concentration given in mol/L; no unit attached.

Ask | Entry under review: `IMDEPTSSL` . Reported pKd?
Reply | 7.19

====

# Study System: HLA-B*27:05
# Method Summary: IEDB peptide-MHC binding, purified MHC/direct/fluorescence; filed as Kd, often an IC50 or EC50 that approximates it; bounds were set here for any values at or beyond the usual limits of such assays
# Condition Set: source organism: Mycolicibacterium gilvum
pKd: −log10 of the molar value.
Assay Readout: pKd

Ask | // returns reported pKd for input `PHDPDFLVL`
Reply | ≤ 4.70

====

# Study System: HLA-B*15:01
# Method Summary: IEDB peptide-MHC binding, purified MHC/direct/fluorescence; filed as Kd, often an IC50 or EC50 that approximates it; bounds were set here for any values at or beyond the usual limits of such assays
# Condition Set: source organism: Francisella tularensis subsp. tularensis
pKd: −log10 of the molar value.
Assay Readout: pKd

Ask | Given the sequence `RYSNFAWYF` , what is its reported pKd?
Reply | ≤ 4.70

FYI, the data here is from the Immune Epitope Database (IEDB).
